# assay-text: physchem
experimental-endpoint: pKa

-- ask Check the records and state pKa for Nc1cccc2c(=O)[nH][nH]c(=O)c12 [5-aminophthaloylhydrazide, 5-amino-2,3-dihydrophthalazine-1,2 dione]
-- reply 6.3

###

# assay-text: physchem
# condition-summary: pH 6.5
experimental-endpoint: solubility (µM)
Numbers only; they are read as µM.

-- ask Check the records and state solubility for Nc1cccc2c(=O)[nH][nH]c(=O)c12 [5-aminophthaloylhydrazide, 5-amino-2,3-dihydrophthalazine-1,2 dione]
-- reply 2000

###

# assay-text: physchem
# condition-summary: pH 7.4
experimental-endpoint: solubility (mM)
Numbers only; they are read as mM.

-- ask Check the records and state solubility for Nc1cccc2c(=O)[nH][nH]c(=O)c12 [5-aminophthaloylhydrazide, 5-amino-2,3-dihydrophthalazine-1,2 dione]
-- reply 12

These data points were gathered from patent US5512573A.
